tested on: Saccharomyces cerevisiae; assay: protein stability index of tFT-peptide fusion (C-terminal peptide) (PSI (0-1 scale)); higher = more stable (slower turnover); conditions: genetic background: das1 deletion; temperature: 30 C;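 further: PSI is a weighted mean of sequencing reads over stability bins, variants kept only with over 10 reads, mCherry proximal and sfGFP distal, peptide attached via GGGS linker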
Each item that follows carries a reported protein stability index.
ENDPOINT_NAME: protein stability index

| CONSTRUCT_SEQUENCE | TGT | VALUE_REPORTED |
| --- | --- | --- |
| NYVVFVRGIKIT | Saccharomyces cerevisiae | 0.533 |
| PLFPLLGLLFFF | Saccharomyces cerevisiae | 0.513 |
| FLQIIIFSRVLF | Saccharomyces cerevisiae | 0.377 |

* * *

tested on: Saccharomyces cerevisiae; experiment: protein stability index of tFT-peptide fusion (C-terminal peptide) (PSI (0-1 scale)); higher = more stable (slower turnover); settings: genetic background: wild type; temperature: 30 C
Please enter T where protein stability index is greater than or equal to 0.7, and F where it is lower.

| CONSTRUCT_SEQUENCE | GROUP_LABEL |
| --- | --- |
| AGQTLARLYTRS | F |
| LKFCSTLLKFAS | F |
| DGCGFIGLSLLE | T |
| QFSPPLSLAPLP | T |
| VQRKVCTFRRSD | F |
| VRFSAVFVKVGV | F |
| PPPSTRSNPGLD | T |
| FRILVGCRVVLM | F |
| VWSSSYVPLGVY | F |
| PRRPLPTISCPS | F |
| HSINNVITNNTE | F |
| LGFFPSPVLCVF | F |
| LAHACQRRQTEA | T |
| WWGCVGRVGVEG | T |
| WYWGGWMRGCGW | T |
| WLPPPPYSPFSL | T |
| CEITISQEQSAS | F |
| RVCCGVKDSEES | F |
